FYI, the data here is from patent US12595230B2.

TGT: ERα (Homo sapiens, UniProt P03372)
Construct: host or cells: MCF7
Sequence (P03372 1-595): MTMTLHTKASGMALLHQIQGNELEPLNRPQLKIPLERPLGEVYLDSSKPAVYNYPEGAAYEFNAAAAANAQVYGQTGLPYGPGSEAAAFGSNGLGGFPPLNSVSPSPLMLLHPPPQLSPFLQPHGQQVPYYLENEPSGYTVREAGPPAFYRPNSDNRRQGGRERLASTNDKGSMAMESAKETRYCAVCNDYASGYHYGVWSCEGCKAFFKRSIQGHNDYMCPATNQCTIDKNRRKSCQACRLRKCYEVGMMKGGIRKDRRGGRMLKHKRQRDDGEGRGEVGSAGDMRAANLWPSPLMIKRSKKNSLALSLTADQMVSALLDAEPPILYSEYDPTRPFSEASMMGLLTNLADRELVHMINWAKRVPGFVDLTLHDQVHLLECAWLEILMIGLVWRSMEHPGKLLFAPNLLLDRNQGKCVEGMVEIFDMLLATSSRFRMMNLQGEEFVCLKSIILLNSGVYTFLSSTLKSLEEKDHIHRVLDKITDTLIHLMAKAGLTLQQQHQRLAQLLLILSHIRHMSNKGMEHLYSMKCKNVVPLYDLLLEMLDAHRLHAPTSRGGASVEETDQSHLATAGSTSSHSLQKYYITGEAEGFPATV
TEST METHOD NOTES: Estrogen receptor degradation activity: breast cancer cell ERα in cell western assay (MCF7 cells)
Type: cell-based
EXPERIMENTAL PARAMETERS: 4 hours post compound addition, concentration which degrades 50% of the estrogen receptor, read-out: Degradation IC50
Procedure: Test: Estrogen Receptor Degradation Activity Said test involves measuring the in vitro degradation activity of the compounds of the Table 1a. The measurements of the degradation activities were made using a breast cancer cell ERα in cell western assay as described hereunder. […] Integrated intensities in the green fluorescence and red fluorescence were measured to determine the levels of ERα and DNA respectively. […]
REPORTED ENDPOINT: DC50 (nM)

MOLECULE: COc1ccc(C2=C(c3ccc(CC4CN(CCCF)C4)cc3)c3ccc(C(=O)O)cc3CCC2)c(Cl)c1 [Example 24]
TGT: ERα (Homo sapiens, UniProt P03372)
DC50 / nM: 0.4
//
MOLECULE: Cl.O=C(O)c1ccc2c(c1)CCCC(c1cc(F)ccc1C(F)(F)F)=C2c1ccc(CC2CN(CCCF)C2)cc1 [Example 332, hydrochloride]
TGT: ERα (Homo sapiens, UniProt P03372)
DC50 / nM: 0.4
//
MOLECULE: Cc1c(C2=C(c3ccc(CC4CN(CCC(F)F)C4)cc3)c3ccc(C(=O)O)cc3CCC2)ccc(F)c1F [Example 275]
TGT: ERα (Homo sapiens, UniProt P03372)
DC50 / nM: 0.4
//
MOLECULE: Cc1cc(Cl)ccc1C1=C(c2ccc(CC3CN(CCC(F)F)C3)cc2)c2ccc(C(=O)O)cc2CCC1 [Example 282]
TGT: ERα (Homo sapiens, UniProt P03372)
DC50 / nM: 0.4
//
MOLECULE: O=C(O)c1ccc2c(c1)CCCC(c1ccc(F)cc1C(F)(F)F)=C2c1ccc(CC2CN(CCC(F)F)C2)cc1 [Example 276]
TGT: ERα (Homo sapiens, UniProt P03372)
DC50 / nM: 0.4
//
MOLECULE: Cc1c(C2=C(c3ccc(CC4CN(CCC(F)F)C4)cc3)c3ccc(C(=O)O)cc3CCC2)cccc1C(F)(F)F [Example 287]
TGT: ERα (Homo sapiens, UniProt P03372)
DC50 / nM: 0.4

----------
TGT: ERα (Homo sapiens)
Construct: host or cells: MCF7
Sequence (P03372 1-595): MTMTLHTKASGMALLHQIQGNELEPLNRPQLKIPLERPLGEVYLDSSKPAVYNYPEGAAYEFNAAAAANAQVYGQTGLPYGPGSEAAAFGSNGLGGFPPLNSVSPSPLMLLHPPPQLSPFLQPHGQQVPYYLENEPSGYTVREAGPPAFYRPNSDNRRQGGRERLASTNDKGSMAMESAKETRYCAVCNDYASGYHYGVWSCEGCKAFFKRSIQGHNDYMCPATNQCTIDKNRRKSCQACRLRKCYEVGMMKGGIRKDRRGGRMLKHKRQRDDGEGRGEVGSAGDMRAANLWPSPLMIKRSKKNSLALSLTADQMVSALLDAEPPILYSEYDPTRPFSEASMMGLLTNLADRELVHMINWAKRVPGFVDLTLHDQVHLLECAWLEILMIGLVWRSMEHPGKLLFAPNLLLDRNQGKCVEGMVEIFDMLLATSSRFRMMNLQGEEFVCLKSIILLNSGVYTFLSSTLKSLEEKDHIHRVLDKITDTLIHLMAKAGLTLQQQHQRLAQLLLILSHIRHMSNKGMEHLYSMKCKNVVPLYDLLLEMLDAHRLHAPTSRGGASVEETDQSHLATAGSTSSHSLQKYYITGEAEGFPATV
TEST METHOD NOTES: Estrogen receptor degradation activity: breast cancer cell ERα in cell western assay (MCF7 cells)
Format: cell-based
EXPERIMENTAL PARAMETERS: 4 hours post compound addition, concentration which degrades 50% of the estrogen receptor, read-out: Degradation IC50
REPORTED ENDPOINT: DC50 (nM)

COMPOUND: Cc1cc(CC2CN(CCCF)C2)ccc1C1=C(c2ccc(Cl)cc2Cl)CCCc2cc(C(=O)O)ccc21 [Example 240]
REPORTED ENDPOINT: DC50
REPORTED RESULT: 0.5

a: CC1CCc2cc(C(=O)O)ccc2C(c2ccc(CC3CN(CCCF)C3)cc2)=C1c1ccc(F)cc1 (racemic) [Example 325]
b: O=C(O)c1ccc2c(c1)CCCC(c1ccc(Cl)cc1Cl)=C2c1ccc(C(O)C2CN(CCCF)C2)cc1 (single isomer, unassigned) [Example 42]
c: O=C([O-])c1ccc2c(c1)OCCC(c1ccc(F)cc1Cl)=C2c1ccc(CC2CN(CCCF)C2)cc1.[Na+] [Example 264]
d: FCCCN1CC(Cc2ccc(C3=C(c4ccccc4Cl)CCCc4ccccc43)cc2)C1 [Example 304]
Q: Thanks in advance: please rank these 4 entries by DC50, highest to lowest. Your reply should list the labels following the order given in the request.
Ans: d, b, c, a
(d: 17.4 nM, b: 3.3 nM, c: 1.1 nM, a: 0.5 nM)

----------
TGT: ERα (Homo sapiens, UniProt P03372)
Construct: host or cells: MCF7
TEST METHOD NOTES: Estrogen receptor degradation activity: breast cancer cell ERα in cell western assay (MCF7 cells)
Format: cell-based
EXPERIMENTAL PARAMETERS: 4 hours post compound addition, concentration which degrades 50% of the estrogen receptor, read-out: Degradation IC50
REPORTED ENDPOINT: DC50 (nM)

Worked examples follow.
SMILES DATA: Cc1cccc(C2=C(c3ccc(CC4CN(CCC(F)F)C4)cc3)c3ccc(C(=O)O)cc3CCC2)c1Cl
DC50 / nM: 0.3
--
SMILES DATA: O=C(O)c1ccc2c(c1)CCCC(c1cccc(CC(F)F)c1)=C2c1ccc(CC2CN(CCCF)C2)cc1
DC50 / nM: 0.7

1: Cl.O=C(O)c1ccc2c(c1)CCCC(c1ccc(F)cc1Cl)=C2c1ccc(CC2CN(CCCF)C2)cc1
2: COc1ccc(C2=C(c3ccc(CC4CN(CCCF)C4)cc3)c3ccc(C(=O)O)cc3CCC2)cn1
Q: Please tell me which of the two, 1 or 2 , has the higher reported DC50 value. Mark your answer with the label of the selected entry.
Ans: 2

----------
TGT: ERα (Homo sapiens, UniProt P03372)
Construct: host or cells: MCF7
Sequence (P03372 1-595): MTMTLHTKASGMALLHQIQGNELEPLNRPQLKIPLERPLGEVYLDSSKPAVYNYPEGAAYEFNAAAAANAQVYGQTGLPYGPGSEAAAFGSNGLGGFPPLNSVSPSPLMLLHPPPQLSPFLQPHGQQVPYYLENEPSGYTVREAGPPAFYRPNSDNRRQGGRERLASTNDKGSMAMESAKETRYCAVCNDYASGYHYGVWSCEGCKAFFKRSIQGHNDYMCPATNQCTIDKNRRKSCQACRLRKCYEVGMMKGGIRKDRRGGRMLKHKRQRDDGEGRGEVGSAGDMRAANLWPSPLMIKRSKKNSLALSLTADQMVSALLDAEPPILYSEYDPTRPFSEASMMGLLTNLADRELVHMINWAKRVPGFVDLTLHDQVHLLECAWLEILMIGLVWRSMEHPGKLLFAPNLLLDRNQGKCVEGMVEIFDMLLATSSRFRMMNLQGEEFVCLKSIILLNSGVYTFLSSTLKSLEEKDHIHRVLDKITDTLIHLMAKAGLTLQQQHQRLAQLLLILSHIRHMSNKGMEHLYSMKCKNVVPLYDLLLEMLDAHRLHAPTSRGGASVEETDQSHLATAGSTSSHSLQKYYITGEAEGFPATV
TEST METHOD NOTES: Estrogen receptor degradation activity: breast cancer cell ERα in cell western assay (MCF7 cells)
Assay type: cell-based
EXPERIMENTAL PARAMETERS: 0.3 μM, 4 hours, relative to fulvestrant 0.1 μM positive control
REPORTED ENDPOINT: % Degradation At 0.3 μM (%)

COMPOUND: O=C(O)c1ccc2c(c1)CCCC(c1ccc(F)cc1C(F)(F)F)=C2c1ccc(CC2(F)CN(CCCF)C2)cc1
TGT: ERα (Homo sapiens, UniProt P03372)
REPORTED RESULT: 92
//
COMPOUND: O=C(O)c1ccc2c(c1)CCCC(c1cccc(F)c1C(F)(F)F)=C2c1ccc(CC2CN(CCCF)C2)cc1
TGT: ERα (Homo sapiens, UniProt P03372)
REPORTED RESULT: 88
//
COMPOUND: CC1CCc2cc(C(=O)O)ccc2C(c2ccc(CC3CN(CCCF)C3)cc2)=C1c1ccc(Cl)cc1 (single isomer, unassigned) [Example 328]
TGT: ERα (Homo sapiens, UniProt P03372)
REPORTED RESULT: 88
//
COMPOUND: O=C(O)c1ccc2c(c1)CCCC(c1ccccc1CC(F)(F)F)=C2c1ccc(CC2CN(CCCF)C2)cc1
TGT: ERα (Homo sapiens, UniProt P03372)
REPORTED RESULT: 89
//
COMPOUND: O=C(O)c1ccc2c(c1)CCCC(c1cccc(C(F)(F)F)c1Cl)=C2c1ccc(CC2CN(CCC(F)(F)F)C2)cc1
TGT: ERα (Homo sapiens, UniProt P03372)
REPORTED RESULT: 83
//
COMPOUND: Cl.O=C(O)c1ccc2c(c1)CCCC(c1ccc(Cl)cc1F)=C2c1ccc(CC2CN(CCCF)C2)cc1
TGT: ERα (Homo sapiens, UniProt P03372)
REPORTED RESULT: 93
//
COMPOUND: N#Cc1cc2c(cc1C(=O)O)CCCC(c1ccc(Cl)cc1Cl)=C2c1ccc(CC2CN(CCCF)C2)cc1
TGT: ERα (Homo sapiens, UniProt P03372)
REPORTED RESULT: 100
//
COMPOUND: O=C(O)c1ccc2c(c1)CCCC(c1cccc(Cl)c1F)=C2c1ccc(CC2CN(CCCF)C2)cc1
TGT: ERα (Homo sapiens, UniProt P03372)
REPORTED RESULT: 94
//
COMPOUND: O=C(O)c1ccc2c(c1)CCCC(c1ccc(F)cc1C(F)(F)F)=C2c1ccc(CC2CN(CCCF)C2)cc1
TGT: ERα (Homo sapiens, UniProt P03372)
REPORTED RESULT: 92
//
COMPOUND: O=C(O)c1ccc2c(c1)CCCC(C1CC3CCC1C3)=C2c1ccc(CC2CN(CCCF)C2)cc1 (mixture of isomers)
TGT: ERα (Homo sapiens, UniProt P03372)
REPORTED RESULT: 84
//
COMPOUND: O=C(O)c1ccc2c(c1)CCCC(c1ccc(Cl)cc1Cl)=C2c1ccc(CC2CN(CCC(F)F)C2)cc1
TGT: ERα (Homo sapiens, UniProt P03372)
REPORTED RESULT: 92
//
COMPOUND: COc1ccc(C2=C(c3ccc(CC4CN(CCCF)C4)cc3)c3ccc(C(=O)O)cc3CCC2)cn1
TGT: ERα (Homo sapiens, UniProt P03372)
REPORTED RESULT: 95
//
COMPOUND: O=C(O)c1ccc2c(c1)CCCC(c1cccc(F)c1C(F)F)=C2c1ccc(CC2CN(CCCF)C2)cc1
TGT: ERα (Homo sapiens, UniProt P03372)
REPORTED RESULT: 91
//
COMPOUND: Cc1cc(OC(F)F)ccc1C1=C(c2ccc(CC3CN(CCCF)C3)cc2)c2ccc(C(=O)O)cc2CCC1
TGT: ERα (Homo sapiens, UniProt P03372)
REPORTED RESULT: 91
//
COMPOUND: FCCCN1CC(Cc2ccc(C3=C(c4ccccc4Cl)CCCc4ccccc43)cc2)C1
TGT: ERα (Homo sapiens, UniProt P03372)
REPORTED RESULT: 89
//
COMPOUND: O=C(O)c1cc2c(cc1F)C(c1ccc(CC3CN(CCCF)C3)cc1)=C(c1ccc(Cl)cc1Cl)CCC2
TGT: ERα (Homo sapiens, UniProt P03372)
REPORTED RESULT: 86
//
COMPOUND: Cc1cc(Cl)ccc1C1=C(c2ccc(CC3CN(CCC(F)F)C3)cc2)c2ccc(C(=O)O)cc2CCC1
TGT: ERα (Homo sapiens, UniProt P03372)
REPORTED RESULT: 86
//
COMPOUND: CC(C)CC1=C(c2ccc(CC3CN(CCCF)C3)cc2)c2ccc(C(=O)O)cc2CCC1
TGT: ERα (Homo sapiens, UniProt P03372)
REPORTED RESULT: 87
//
COMPOUND: O=C(O)c1ccc2c(c1)CCCC(c1cccc(Cl)c1C(F)(F)F)=C2c1ccc(CC2CN(CCC(F)(F)F)C2)cc1
TGT: ERα (Homo sapiens, UniProt P03372)
REPORTED RESULT: 87
//
COMPOUND: COC(c1ccc(C2=C(c3ccc(Cl)cc3Cl)CCCc3cc(C(=O)O)ccc32)cc1)C1CN(CCCF)C1 (single isomer, unassigned; isomer 1) [Example 227]
TGT: ERα (Homo sapiens, UniProt P03372)
REPORTED RESULT: 75
